assay: Cytotoxicity against human HEPA 59T/VGH cells by MTT assay; assay type: functional; details: read-out: ED50 (the source's name)
property_label: EC50

Just so you know, measured EC50 for C=C(C)[C@@H]1CC(=O)CC2=C(C1)[C@@H]1C(=O)O[C@@H]3C[C@](C)(O)[C@H](C2=O)[C@H]13 [SCABROLIDE A] came out at > 20 µg/mL

Just so you know, measured EC50 for C=C(C)[C@@H]1CC(=O)[C@H]2[C@H](C1)[C@@H]1C(=O)O[C@@H]3C[C@@]4(C)O[C@@H]2C(=O)[C@@H]4[C@H]13 came out at > 20 µg/mL

Just so you know, measured EC50 for C=C(C)[C@H]1CC[C@]23O[C@H]2[C@@H](C[C@@]2(C)CC(=O)[C@H](CC(=O)C1)O2)OC3=O [SCABROLIDE D] came out at > 20 µg/mL
